// Tubulin Polym. lookup, one value per entry
# target: porcine tubulin (Sus scrofa)
# test_protocol: Induction of porcine tubulin polymerization
# Type: biochemical
# measurement_context: Table 2; under the conditions used for Table 1; unit not given
// no unit string in output, number only

Study these solved cases before continuing.
compound_structure_string | reported_result
C/C1=C/C[C@@H](/C(C)=C/c2csc(C)n2)OC(=O)C[C@H](O)C(C)(C)C(=O)[C@H](C)[C@@H](O)[C@@H](C)C(=O)OC1 | 21.4
C/C(=C\c1csc(C)n1)[C@@H]1C[C@@H]2O[C@]2(C)CCC[C@H](C)[C@H](O)[C@@H](C)C(=O)C(C)(C)[C@@H](O)CC(=O)O1 | 81.4
CC(=O)O[C@H]1C(=O)[C@@]2(C)[C@H]([C@H](OC(=O)c3ccccc3)[C@]3(O)C[C@H](OC(=O)[C@H](O)[C@@H](NC(=O)c4ccccc4)c4ccccc4)C(C)=C1C3(C)C)[C@]1(OC(C)=O)CO[C@@H]1C[C@@H]2O | 38.9

The record that follows has no Tubulin Polym. shown yet.
stdin: Provide Tubulin Polym. value for the following compound: "C/C1=C/C[C@@H](/C(C)=C/c2csc(C)n2)OC(=O)C[C@H](O)C(C)(C)C(=O)[C@H](C)[C@@H](O)[C@@H](C)CCC1"
stdout: 62.3

---

# Tested on: MCF-7 (breast)
# test_protocol: Antiproliferative activity (growth inhibition), MCF-7 cells
# Type: cell-based
# measurement_context: Homo sapiens, MCF7, read-out: IC50 MCF-7 (breast)
quantity_kind: IC50 (nM)
Numeric answer only, unit nM assumed.

compound_structure_string | measurement_unit | reported_result
C/C1=C/C[C@@H](/C(C)=C/c2csc(C)n2)OC(=O)C[C@H](O)C(C)(C)C(=O)[C@H](C)[C@@H](O)[C@@H](C)CCC1 | nM | 2.31

stdin: State, in one line, measured IC50 of "C/C(=C\c1csc(C)n1)[C@@H]1C[C@@H]2O[C@]2(C)CCC[C@H](C)[C@H](O)[C@@H](C)C(=O)C(C)(C)[C@@H](O)CC(=O)O1"
stdout: 0.29

---

# reported IC50; entries follow
# Test system: PC3-M (prostate)
# test_protocol: Antiproliferative activity (growth inhibition), PC3-M cells
# Assay type: cell-based
# measurement_context: Homo sapiens, PC-3M, read-out: IC50 PC3-M (prostate)
Please state the figure in nM; there is no need to write the unit.

compound_structure_string | quantity_kind | reported_result
C/C(=C\c1csc(C)n1)[C@@H]1C[C@@H]2O[C@]2(C)CCC[C@H](C)[C@H](O)[C@@H](C)C(=O)C(C)(C)[C@@H](O)CC(=O)O1 | IC50 | 0.32

stdin: Check the records and state IC50 for "C/C1=C/C[C@@H](/C(C)=C/c2csc(C)n2)OC(=O)C[C@H](O)C(C)(C)C(=O)[C@H](C)[C@@H](O)[C@@H](C)CCC1"
stdout: 7.4

---

# target: porcine tubulin (Sus scrofa, UniProt P02554)
# Sequence (P02554 whole entry): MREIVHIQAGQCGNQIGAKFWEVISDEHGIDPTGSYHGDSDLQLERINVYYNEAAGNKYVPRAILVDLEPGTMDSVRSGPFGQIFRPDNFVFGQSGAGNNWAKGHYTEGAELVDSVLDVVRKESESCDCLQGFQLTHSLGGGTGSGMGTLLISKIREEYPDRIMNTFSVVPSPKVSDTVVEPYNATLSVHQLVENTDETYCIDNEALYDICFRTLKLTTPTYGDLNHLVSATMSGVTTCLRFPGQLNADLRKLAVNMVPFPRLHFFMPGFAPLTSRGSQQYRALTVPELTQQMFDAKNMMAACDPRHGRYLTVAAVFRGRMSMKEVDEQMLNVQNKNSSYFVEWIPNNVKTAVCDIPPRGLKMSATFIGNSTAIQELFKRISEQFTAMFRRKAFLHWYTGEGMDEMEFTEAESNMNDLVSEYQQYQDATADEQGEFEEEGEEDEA
# Sequence (P02550 whole entry partner): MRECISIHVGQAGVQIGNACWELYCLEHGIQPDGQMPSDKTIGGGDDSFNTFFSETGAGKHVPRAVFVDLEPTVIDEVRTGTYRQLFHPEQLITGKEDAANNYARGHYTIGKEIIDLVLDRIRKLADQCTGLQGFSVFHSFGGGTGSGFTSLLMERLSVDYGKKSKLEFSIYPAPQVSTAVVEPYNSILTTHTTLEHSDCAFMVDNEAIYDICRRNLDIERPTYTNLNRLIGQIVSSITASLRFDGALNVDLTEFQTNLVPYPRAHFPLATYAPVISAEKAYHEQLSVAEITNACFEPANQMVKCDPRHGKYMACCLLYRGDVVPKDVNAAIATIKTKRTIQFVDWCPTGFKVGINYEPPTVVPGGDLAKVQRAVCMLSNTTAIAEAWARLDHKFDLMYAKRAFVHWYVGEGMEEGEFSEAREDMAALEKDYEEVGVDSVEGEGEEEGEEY
# test_protocol: Induction of porcine tubulin polymerization
# Assay type: biochemical
# measurement_context: 5 μM compound, relative to the effect of Epothilone B at 25 μM defined as 100%
Is Tubulin Polym. at least 90%? Then criterion met. If not, criterion not met.

stdin: Dear colleague, could you confirm whether "C/C(=C\c1csc(C)n1)[C@@H]1C[C@@H]2O[C@]2(C)CCC[C@H](C)[C@H](O)[C@@H](C)C(=O)C(C)(C)[C@@H](O)CC(=O)O1" has Tubulin Polym. at or above 90%?
stdout: criterion met

---

# target: porcine tubulin (Sus scrofa)
# test_protocol: Induction of porcine tubulin polymerization
# Format: biochemical
# measurement_context: 5 μM compound, relative to the effect of Epothilone B at 25 μM defined as 100%
quantity_kind: Tubulin Polym. (%)
Give the value, in units of %, as a plain number.

compound | measurement_unit | Tubulin Polym.
C/C1=C\C[C@@H](/C(C)=C/c2csc(C)n2)OC(=O)C[C@H](O)C(C)(C)C(=O)[C@H](C)[C@@H](O)[C@@H](C)/C=C/C1 | % | 36
CC(=O)O[C@H]1C(=O)[C@@]2(C)[C@H]([C@H](OC(=O)c3ccccc3)[C@]3(O)C[C@H](OC(=O)[C@H](O)[C@@H](NC(=O)c4ccccc4)c4ccccc4)C(C)=C1C3(C)C)[C@]1(OC(C)=O)CO[C@@H]1C[C@@H]2O [Paclitaxel (Taxol), Paclitaxel] | % | 53
C/C1=C/C[C@@H](/C(C)=C/c2csc(C)n2)OC(=O)C[C@H](O)C(C)(C)C(=O)[C@H](C)[C@@H](O)[C@@H](C)/C=C\C1 [9,10-cis-Dehydroepothilone D, 9,10-dehydrodes-epoxyepothilone B] | % | 56

Now look at this one.
stdin: State its Tubulin Polym.: C/C1=C/C[C@@H](/C(C)=C/c2csc(C)n2)OC(=O)C[C@H](O)C(C)(C)C(=O)[C@H](C)[C@@H](O)[C@@H](C)CCC1 [Epothilone D]
stdout: 88
